Values were extracted from patent WO2025083273A1.

Record form. Attribute: EC50 (pM), DR3 Jurkat reporter. Fill in for each entry.
Target: T1, human DR3 (TNFRSF25) expressed on cells (human, UniProt Q93038 25-417)
T1 sequence: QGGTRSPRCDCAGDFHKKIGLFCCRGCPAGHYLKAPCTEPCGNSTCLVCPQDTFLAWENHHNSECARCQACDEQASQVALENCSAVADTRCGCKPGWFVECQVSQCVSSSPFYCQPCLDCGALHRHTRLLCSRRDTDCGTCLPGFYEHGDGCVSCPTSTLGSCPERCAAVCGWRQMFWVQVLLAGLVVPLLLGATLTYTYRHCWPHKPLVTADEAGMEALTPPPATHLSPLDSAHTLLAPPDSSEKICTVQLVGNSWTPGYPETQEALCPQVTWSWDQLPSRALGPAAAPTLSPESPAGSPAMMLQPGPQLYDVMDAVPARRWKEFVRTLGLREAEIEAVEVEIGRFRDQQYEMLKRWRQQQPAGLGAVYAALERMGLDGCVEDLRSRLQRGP
Assay: cell-based or functional assay
One number for each entry, in pM.

{"binder": "VHg10/VLg11 (antibody, human IgG1, V domains shown, human IgG1) VH: EVQLVESGGGLVQPGGSLRLSCAASGFTFSSYAMSWVRQAPGKGLEWVSTISDGDSYSYFPDSVKDRFTISRDNSKNTLYLQMNSLRAEDTAVYYCARDRIYGSVQYYAMDYWGQGTLVTVSS VL: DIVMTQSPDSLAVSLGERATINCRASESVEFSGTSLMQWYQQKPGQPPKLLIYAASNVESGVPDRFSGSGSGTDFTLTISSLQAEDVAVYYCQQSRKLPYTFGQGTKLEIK", "unit-of-measurement": "pM", "number": 245}

Your task in this section: give EC50 (pM), DR3 Jurkat reporter for each listed record.
1. VHg6/VLg11 (antibody, human IgG1, V domains shown, human IgG1) VH: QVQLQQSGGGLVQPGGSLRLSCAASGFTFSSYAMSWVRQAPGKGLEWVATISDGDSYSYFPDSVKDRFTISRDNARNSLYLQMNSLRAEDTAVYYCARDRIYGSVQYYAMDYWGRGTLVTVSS VL: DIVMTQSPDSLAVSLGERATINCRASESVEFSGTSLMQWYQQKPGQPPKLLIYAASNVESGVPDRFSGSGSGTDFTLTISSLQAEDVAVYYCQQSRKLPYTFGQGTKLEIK
2. VHg10/VLg12 (antibody, human IgG1, V domains shown, human IgG1) VH: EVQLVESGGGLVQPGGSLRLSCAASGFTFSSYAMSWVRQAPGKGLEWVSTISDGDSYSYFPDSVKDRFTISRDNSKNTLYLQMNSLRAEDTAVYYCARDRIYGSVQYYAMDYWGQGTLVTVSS VL: EIVLTQSPATLSLSPGERATLSCRASESVEFSGTSLMQWYQQKPGQAPRLLIYAASNVESGIPARFSGSGSGTDFTLTISSLEPEDFAVYYCQQSRKLPYTFGQGTKLEIK
3. VHg2/VLg12 (antibody, human IgG1, V domains shown, human IgG1) VH: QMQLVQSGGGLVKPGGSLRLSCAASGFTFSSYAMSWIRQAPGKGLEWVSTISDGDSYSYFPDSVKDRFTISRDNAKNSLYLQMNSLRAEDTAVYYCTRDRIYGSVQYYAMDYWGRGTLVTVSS VL: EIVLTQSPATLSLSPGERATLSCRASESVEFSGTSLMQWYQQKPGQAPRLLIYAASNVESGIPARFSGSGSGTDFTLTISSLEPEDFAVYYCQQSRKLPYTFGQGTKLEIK
4. VHg2/VLg11 (antibody, human IgG1, V domains shown, human IgG1) VH: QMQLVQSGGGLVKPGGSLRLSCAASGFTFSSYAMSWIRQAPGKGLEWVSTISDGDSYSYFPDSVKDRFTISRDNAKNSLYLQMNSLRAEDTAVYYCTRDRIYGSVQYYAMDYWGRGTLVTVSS VL: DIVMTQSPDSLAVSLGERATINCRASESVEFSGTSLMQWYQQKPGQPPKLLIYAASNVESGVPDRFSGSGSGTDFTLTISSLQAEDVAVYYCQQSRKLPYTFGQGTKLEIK
5. VHg2/VLs10 (antibody, human IgG1, V domains shown, human IgG1; also called VHg2_VLg10) VH: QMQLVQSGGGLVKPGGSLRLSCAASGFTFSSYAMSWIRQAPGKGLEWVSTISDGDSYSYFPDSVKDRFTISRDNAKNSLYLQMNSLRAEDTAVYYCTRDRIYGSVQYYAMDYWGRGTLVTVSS VL: ETTLTQSPGTLSLSPGERATLSCRASQSVSSSSLAWYQQKPGQAPRLLIYGASSRATGIPDRFSGSGSGTDFTLTISRLEPEDFAVYYCHQYGGSWTFGKGTKVEIK

1. 130
2. 132
3. 117
4. 136
5. 644
